Taken from PubChem BioAssay (NCI).

Test system: RXF 393 renal
Assay: NCI tumour cell line growth inhibition, 48 h
measure.name: TGI (µM)

- C/C(=N\NC(=S)SCc1ccccc1)c1ccccn1: 3.03
- CCCCNC(=O)C1C2CCC(O2)C1C(=O)O (stereo not given): 8.44
- CC1(C)NCCC[C@]2(C)[C@H]3CC[C@@H]4[C@H]5[C@H](C(=O)/C=C/c6ccccn6)CC[C@]5(CO)CC[C@@]4(C)[C@]3(C)CC[C@@H]12: 8.08
- C[N+](C)(C)CC(=O)N/N=C(\C(=O)NC1=C(Cl)C(=O)c2ccccc2C1=O)C(C#N)c1nc(-c2ccc([N+](=O)[O-])cc2)cs1 (stereo not given): 30.2

---

Each entry below lists one item and its recorded TGI value.
Test system: MALME-3M melanoma
Assay: NCI tumour cell line growth inhibition, 48 h
measure.name: TGI

* O=C(O/N=C1/CCC/C1=C\c1ccccc1)c1ccc(Cl)c(Cl)c1 | > 100 µM
* CC1(C)NCCC[C@]2(C)[C@H]3CC[C@@H]4[C@H]5[C@H](C(=O)/C=C/c6ccccn6)CC[C@]5(CO)CC[C@@]4(C)[C@]3(C)CC[C@@H]12 | 3.51 µM
* COc1cc(C2=N/C(=C/c3cccs3)C(=O)O2)cc(OC)c1OC | > 100 µM
* CCN(CC)c1ccc2nc3ccc(N=Nc4c(O)ccc5ccccc45)cc3[n+](-c3ccccc3)c2c1 | > 100 µM

---

System: IGROV1 ovarian
Experiment: NCI tumour cell line growth inhibition, 48 h
This listing pairs compounds with measured TGI.
measure.name: TGI

* O=C1C2C(C(=O)N1c1ccccc1)C1([N+](=O)[O-])C=C3c4ccccc4N(C(=O)c4ccccc4)C32C2C(=O)N(c3ccccc3)C(=O)C21 (stereo not given) | > 100 µM
* CC1CN(c2cc3c(cc2F)c(=O)c(C(=O)O)cn3-c2ccc(F)cn2)CC(C)N1 (stereo not given) | > 100 µM
* COc1cc(C2=N/C(=C/c3cccs3)C(=O)O2)cc(OC)c1OC | > 100 µM
* CN(Cc1cc(Br)cc(Br)c1O)Cc1c(O)ccc2ccccc12 | 44.6 µM
* O=[N+]([O-])c1cc(C(F)(F)F)ccc1Sc1ccc(C(F)(F)F)cc1[N+](=O)[O-] | > 100 µM

---

Tested on: OVCAR-4 ovarian
Assay: NCI tumour cell line growth inhibition, 48 h
measure.name: GI50

- CC1(C)NCCC[C@]2(C)[C@H]3CC[C@@H]4[C@H]5[C@H](C(=O)/C=C/c6ccccn6)CC[C@]5(CO)CC[C@@]4(C)[C@]3(C)CC[C@@H]12: 3.51 µM
- N#Cc1cc(S(=O)(=O)Nc2nnc(-c3ccccc3)c(-c3ccccc3)n2)c(SCc2ccccc2)cc1Cl: 33.9 µM
- O=C(Nc1cccc(Cl)c1)c1cccc(NC2=C(Cl)C(=O)N(Cc3ccccc3)C2=O)c1: 68.5 µM
- C=C1C(=O)O[C@H]2[C@H]1CC/C(COC(=O)C(C)c1ccc(CC(C)C)cc1)=C\CC[C@@]1(C)O[C@@H]21 (some centres undefined): 1.71 µM
- O=C(Nc1cccc(-c2ccc(Cl)c(C(F)(F)F)c2)c1)C1CCN(Cc2cccc3cccnc23)CC1: 1.59 µM
- CO/N=C(\COc1ccc2oc(-c3ccccc3)cc(=O)c2c1)c1ccc(OC)cc1: 19.7 µM
- CN(CC(=O)Nc1nc2ccccc2[nH]1)S(=O)(=O)c1ccc(Cl)cc1: > 100 µM
- O=[N+]([O-])c1cc(C(F)(F)F)ccc1Sc1ccc(C(F)(F)F)cc1[N+](=O)[O-]: 4.05 µM
- O=C1c2ccccc2-c2c1c1c(O)cccc1n2Cc1ccccn1: > 100 µM
